Test: logP determination by HPLC on reverse-phase column (C 18), EEC directive 79/831 Annex V.A8
Format: physicochemical
Details: reverse-phase HPLC column (C 18), pH 7.5, neutral range, pH 7.5; 0.01 molar aqueous phosphate buffer/acetonitrile gradient; 43° C.; values marked b)
Observed Property: chromatographic logP

Compound	chromatographic logP
Clc1ccc(C2CCC(c3ccccc3Br)=N2)cc1 (centres unmarked)	4.22
FC(F)(F)Oc1ccc(-c2ccc(C3CCC(c4ccccc4Br)=N3)cc2)cc1 (centres unmarked)	5.56
Cc1ccc(C2CCC(c3ccccc3Br)=N2)cc1 (centres unmarked)	4.07

(a) Fc1cccc(F)c1C1=NC(c2ccc(C3CCCCC3)cc2)CC1 (centres unmarked)
(b) CC(=O)c1ccc(C2CCC(c3ccccc3Br)=N2)cc1 (centres unmarked)
Qu. Given the listed items, does a or b have the lesser reported chromatographic logP? Answer = label.
Ans. b

---

Assay: logP determination by HPLC on reverse-phase column (C 18), EEC directive 79/831 Annex V.A8
Assay type: physicochemical
Conditions: reverse-phase HPLC column (C 18), pH 7.5, neutral range, pH 7.5; 0.01 molar aqueous phosphate buffer/acetonitrile gradient; 43° C.; values marked b)
Observed Property: chromatographic logP

Take a look at these entries with their results.
Compound	chromatographic logP
Fc1ccc(C2CCC(c3cccc(Cl)c3)=N2)cc1 (stereo not shown)	4.05
Cc1ccccc1C1=NC(c2ccc(Cl)cc2C)CC1 (stereo not shown)	4.79
Fc1ccc(C2CCC(c3ccccc3F)=N2)cc1F (stereo not shown)	3.74

(P) Brc1ccccc1C1=NC(c2ccc(C3CCCCC3)cc2)CC1 (stereo not shown)
(Q) COc1ccc(C2CCC(c3ccccc3Br)=N2)cc1 (stereo not shown)
Qu. Given the listed items, does P or Q have the lesser reported chromatographic logP? Answer = label.
Ans. Q
(Q: 3.5, P: 6.03)

---

Experiment: logP determination by HPLC on reverse-phase column (C 18), EEC directive 79/831 Annex V.A8
Type: physicochemical
Details: reverse-phase HPLC column (C 18), pH 7.5, neutral range, pH 7.5; 0.01 molar aqueous phosphate buffer/acetonitrile gradient; 43° C.; values marked b)
Observed Property: chromatographic logP

Take a look at these entries with their results.
Compound	Endpoint Result
Cc1cc(Cl)ccc1C1CCC(=O)N1C(=O)OC(C)(C)C (stereo not shown)	3.25
CSc1ccc(C2CCC(c3ccccc3Cl)=N2)cc1 (stereo not shown)	4
Clc1ccccc1C1=NC(c2ccc(C3CCCCC3)cc2)CC1 (stereo not shown)	6.04
Cc1ccc(C2CCC(c3ccccc3F)=N2)c(Cl)c1 (stereo not shown)	4.74
Brc1ccc(C2=NC(c3ccccc3)CC2)cc1 (stereo not shown)	4.06
Fc1ccccc1C1=NC(c2ccccc2)CC1 (stereo not shown)	3.45

(a) CSc1ccc(C2CCC(=O)N2C(=O)OC(C)(C)C)cc1 (stereo not shown)
(b) Cc1ccccc1C1=NC(c2ccc(-c3ccc(SC(F)(F)F)cc3)cc2)CC1 (stereo not shown)
(c) Clc1cccc(C2=NC(c3ccccc3)CC2)c1Cl (stereo not shown)
Qu. Arrange the 3 entries by chromatographic logP so the values rise. # respond with the labels, arranged in the requested order
Ans. a, c, b
(a: 2.83, c: 4.07, b: 6.1)

---

Test: logP determination by HPLC on reverse-phase column (C 18), EEC directive 79/831 Annex V.A8
Format: physicochemical
Conditions: reverse-phase HPLC column (C 18), pH 2.3, acidic range, pH 2.3; 0.1% aqueous phosphoric acid/acetonitrile gradient; 43° C.; values marked a)
Observed Property: chromatographic logP

Take a look at these entries with their results.
Molecule	chromatographic logP
CC(C)(C)OC(=O)N1C(=O)CCC1c1ccc(Cl)c(Cl)c1 (stereo not shown)	3.29
O=C1CCC(c2ccc(O)cc2)N1 (stereo not shown)	0.55
CCOc1cc(C(C)(C)C)ccc1C1CCC(c2ccccc2Br)=N1 (stereo not shown)	3.31
Cc1ccc(C2CCC(=O)N2C(=O)OC(C)(C)C)cc1Cl (stereo not shown)	3.3
Cc1ccc(C2CCC(=O)N2)c(Cl)c1 (stereo not shown)	1.92
CSc1ccc(C2CCC(c3ccccc3Cl)=N2)cc1 (stereo not shown)	2.19
CC(C)Oc1ccc(-c2ccc(C3CCC(=O)N3C(=O)OC(C)(C)C)cc2)cc1 (stereo not shown)	4.17
Fc1cccc(F)c1C1=NC(c2ccc(OCC(F)(F)F)cc2)CC1 (stereo not shown)	2.41

(P) Fc1ccc(C2CCC(c3ccccc3Cl)=N2)cc1 (stereo not shown)
(Q) FC(F)(F)Sc1ccc(-c2ccc(C3CCC(c4ccc(Cl)cc4Cl)=N3)cc2)cc1 (stereo not shown)
Qu. Please state the entry with greater chromatographic logP among P and Q . Answer = label.
Ans. Q
(Q: 6.19, P: 2)
